molecular target: Sulfhydryl oxidase 1 (Homo sapiens) (UniProt O00391); experiment: inhibition of human sulfhydryl oxidase QSOX1 – biochemical, HyperBlu H2O2 luminescence, HTS, primary screen (AID 1347420); settings: recombinant QSOX1, HyperBlu H2O2 luminescence; at 12.5 µM; hits give high values; active = any value above zero; further: values above 100% were filed as inconclusive
Sequence (O00391 whole entry, looked up): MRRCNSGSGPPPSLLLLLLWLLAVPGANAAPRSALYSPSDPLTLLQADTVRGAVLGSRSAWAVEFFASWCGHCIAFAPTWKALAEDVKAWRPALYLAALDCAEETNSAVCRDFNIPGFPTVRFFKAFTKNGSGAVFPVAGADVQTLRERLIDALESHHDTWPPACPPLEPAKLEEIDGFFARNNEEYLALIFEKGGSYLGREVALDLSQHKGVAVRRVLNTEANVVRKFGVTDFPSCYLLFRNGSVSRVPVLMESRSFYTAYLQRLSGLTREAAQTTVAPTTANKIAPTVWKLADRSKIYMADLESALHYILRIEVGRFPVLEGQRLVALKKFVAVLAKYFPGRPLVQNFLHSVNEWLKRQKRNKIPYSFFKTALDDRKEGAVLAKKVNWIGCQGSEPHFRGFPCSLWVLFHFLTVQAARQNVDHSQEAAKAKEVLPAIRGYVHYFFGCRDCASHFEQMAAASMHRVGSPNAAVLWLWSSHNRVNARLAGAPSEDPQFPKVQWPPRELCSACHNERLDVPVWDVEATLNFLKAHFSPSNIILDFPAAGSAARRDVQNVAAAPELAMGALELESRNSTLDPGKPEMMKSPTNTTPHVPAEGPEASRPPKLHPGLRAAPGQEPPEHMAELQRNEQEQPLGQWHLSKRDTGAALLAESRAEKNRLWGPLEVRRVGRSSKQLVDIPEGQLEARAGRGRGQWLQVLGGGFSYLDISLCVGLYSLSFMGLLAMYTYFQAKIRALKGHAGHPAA
Out of some 1,300 compounds screened, about 980 (75%) were called active. Not shown: some 4% with an inconclusive outcome. The list shows a part of the results.
Respond with a class label; see active, inactive

Prompt line: Could you check what this test reported for O=C(c1ccc(Cl)cc1)N1CCN(c2ccc([N+](=O)[O-])c3ncccc23)CC1 ?
Response line: active

Prompt line: Which outcome was entered for the compound C[C@]12C=CC(=O)C=C1CC[C@@H]1C2=CC[C@]2(C)[C@@H](C(=O)CN3CCN(c4cc(N5CCCC5)nc(N5CCCC5)n4)CC3)CC[C@@H]12 in this test?
Response line: active

Prompt line: Assay result, entry Clc1ccccc1C(c1ccccc1)(c1ccccc1)n1ccnc1 — outcome?
Response line: inactive

Prompt line: Per the assay record, what outcome was assigned to Clc1nccc2c1ccc1ccccc12 ?
Response line: active

Every entry's value here was drawn from PubChem BioAssay AID1347420.
